Measured melting point values are reported for all entries that follow.

1) Cc1ccc(-c2cc(C(F)(F)F)nn2-c2ccc(S(=O)(=O)NOCCC(=O)O)cc2)cc1 | 176 to 178 °C

melting point reported for this molecule Cc1ccc(-c2cc(C(F)(F)F)nn2-c2ccc(S(=O)(=O)NOC(=O)C(C)(C)C)cc2)cc1 : 134 to 136 °C

melting point reported for this molecule Cc1ccc(-c2cc(C(F)(F)F)nn2-c2ccc(S(=O)(=O)NOC(=O)c3ccccc3)cc2)cc1 : 152 to 155 °C

melting point reported for this molecule CCOC(=O)C(C)ONS(=O)(=O)c1ccc(-n2nc(C(F)(F)F)cc2-c2ccc(C)cc2)cc1 (stereo not shown) : 137 to 138 °C

melting point reported for this molecule CC(=O)ONS(=O)(=O)c1ccc(-n2nc(C(F)(F)F)cc2-c2ccc(C)cc2)cc1 : 138 to 140 °C

melting point reported for this molecule CCOC(=O)CONS(=O)(=O)c1ccc(-n2nc(C(F)(F)F)cc2-c2ccc(C)cc2)cc1 : 143 to 144 °C

melting point reported for this molecule Cc1ccc(-c2cc(C(F)(F)F)nn2-c2ccc(S(=O)(=O)NOCC(=O)O)cc2)cc1 : 224 to 225 °C
